Assay: in vitro
Format: cell-based, human
Conditions: human, leukemic t-cell line; same test protocol as Table I; read-out: toxic at (concentration)
READOUT: MCC (µg/mL)
The figure you give is taken to be in µg/mL; do not add the unit.

Can you look up the measured MCC of Cc1cn([C@H]2C[C@H](N=[N+]=[N-])[C@@H](CO)O2)c(=O)[nH]c1=O [AZT, 3'-azido-3'-deoxythymidine, reference compound] for me?
0.01

====

Assay: Cytotoxic activity in non-infected T-lymphocytes (Example 14, Table II)
Assay type: cell-based
Details: human, dosage 0.13 mg/ml, read-out: Cytotoxic Activity (% cell death)
Description: Further testing of compounds 1 to 12 for inhibition of HIV replication was carried out to confirm the results of Example 13. To discriminate between specific anti-HIV activity and cytotoxicity, the effects of these compounds on HIV infected and non-infected T-lymphocytes were assessed in parallel. […]
READOUT: cytotoxicity (%)
Supply the numeric figure in %, leaving out any unit text.

COMPOUND_STRUCTURE: OC[C@@H]1NC[C@@H](O)[C@H]1O
cytotoxicity (%): 0

// moving on: another record for cytotoxicity
What value of cytotoxicity has been reported for the following molecule? "OC[C@H]1NC[C@H](O)[C@@H]1O"
0

====

Assay: Cytotoxic activity in non-infected T-lymphocytes (Example 14, Table II)
Assay type: cell-based
Details: human, dosage 0.3 mg/ml, read-out: Cytotoxic Activity (% cell death)
READOUT: cytotoxicity (%)
Provide the reading as a plain figure in %.

Sample CN1C[C@@H](O)[C@@H](O)[C@H](O)[C@H]1CO [Compound 9] — what was its cytotoxicity?
0

====

Item-by-item account of activity at 100 µg/mL
Test system: HIV
Experiment: Anti-HIV activity, CPE reduction in HIV infected T-lymphocytes (Example 14, Table II)
Type: cell-based
Conditions: Human immunodeficiency virus 1, T-lymphocyte; dosage 0.1 mg/ml
The number alone won't do; follow it with the unit.

Below, each entry is followed by its recorded activity at 100 µg/mL result.
COMPOUND_STRUCTURE: OC[C@H]1[C@H](O)[C@H](O)CN1Cc1ccccc1
RESULT: 25%

COMPOUND_STRUCTURE: OC[C@@H]1NC[C@H](O)[C@H]1O
RESULT: 50%

COMPOUND_STRUCTURE: CN1[C@H](CO)[C@@H](O)[C@H](O)[C@H]1CO
RESULT: 25%

COMPOUND_STRUCTURE: CN1C[C@H](O)[C@@H](O)[C@@H]1CO
RESULT: 25%

COMPOUND_STRUCTURE: COC(=O)CCCCCN1C[C@@H](O)[C@H](O)[C@H](O)[C@@H]1C
RESULT: 75%

COMPOUND_STRUCTURE: C[C@@H]1NC(=O)[C@@H](O)[C@H](O)[C@@H]1O
RESULT: 50%

Report activity at 100 µg/mL for "C[C@H]1[C@@H](O)[C@@H](O)[C@H](O)CN1C" tested on HIV.
25%

Cool, now "CN1C[C@H](O)[C@H](O)[C@H]1CO"
25%

Taken from patent US5089520A.
